Every entry's value here was drawn from a melting point compilation (Tetko et al.).

Endpoint: melting point

INSERT INTO assay_data (compound, endpoint, val) VALUES
  ('NCc1cccc(S(=O)(=O)N2CCCCC2)c1', 'melting point', '67 to 69 °C'),
  ('COCCOc1ccc(/C(C)=N\O)cc1OC', 'melting point', '124 to 126 °C'),
  ('Nc1ncn(Cc2ccccc2)n1', 'melting point', '130 to 132 °C'),
  ('COc1ccc(N2CC(C(=O)O)CC2=O)cc1OC (centres undefined)', 'melting point', '201 to 203 °C'),
  ('O=C(O)c1sccc1S(=O)(=O)Nc1ccc(F)cc1', 'melting point', '180 to 182 °C'),
  ('Cc1n[nH]c(C(F)(F)Cl)c1C(=O)O', 'melting point', '260 to 262 °C'),
  ('O=C(O)c1cccc(C(=O)N2CCS(=O)(=O)CC2)n1', 'melting point', '217 to 219 °C'),
  ('N#CCc1c[nH]c2ccc(Br)cc12', 'melting point', '103 to 105 °C'),
  ('Cc1ccc(S(=O)(=O)N(C)C)cc1N', 'melting point', '172 to 174 °C'),
  ('CN(CC(=O)O)C1CCCC1O (centres undefined)', 'melting point', '150 to 152 °C'),
  ('CC(C)NC(=O)Nc1ccccc1N', 'melting point', '317 to 319 °C'),
  ('COc1ccccc1N(C)S(=O)(=O)c1ccc(C)c(C(=O)O)c1', 'melting point', '153 to 155 °C'),
  ('Cn1ncc2c(=O)[nH]c(NN)nc21', 'melting point', '285 to 287 °C'),
  ('N#CC1=C(N)CCCC1', 'melting point', '92 to 94 °C'),
  ('CCCCn1nnnc1CCl', 'melting point', '< 17 °C'),
  ('C=CCNC(=O)NC(=O)CCl', 'melting point', '113 to 115 °C'),
  ('O=C(O)C1CCN(S(=O)(=O)c2cccc3c2N=S=N3)CC1', 'melting point', '232 to 234 °C'),
  ('CN(C(=O)C1CC1)c1ccccc1C(=O)O', 'melting point', '166 to 168 °C'),
  ('c1ccc2[nH]c(C3CCNCC3)cc2c1', 'melting point', '192 to 194 °C'),
  ('O=C1NCCCc2sccc21', 'melting point', '89 to 91 °C'),
  ('CCC(C)C1NC(C(=O)O)CS1 (centres undefined)', 'melting point', '177 to 179 °C'),
  ('Nc1cccc(-c2ncco2)c1', 'melting point', '61 to 63 °C'),
  ('Cc1nc(-c2ccccc2)sc1N', 'melting point', '117 to 119 °C'),
  ('Cn1c(=O)c2sccc2n2c(CCl)nnc12', 'melting point', '244 to 246 °C');
